METHOD: HepG2 cytotoxicity, primary screen, cytotoxicity control for P. falciparum antimalarial project, cell-based, ATP luminescence (AID 2303);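 note: 0% = DMSO wells and 100% = digitonin-killed cells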
PARTICULARS: HepG2 viability, 24-48 h, at 10 µM, stronger effect = higher value

MOLECULE	UNITS LABEL	inhibition
CN(C)CCOc1cc(NC(=O)Nc2ccc(-c3ccncc3)c(C(F)(F)F)c2)ccc1Cl	%	36
C=C[C@H]1CN(CCCCCCC)CC[C@H]1CCN(C)c1ccnc2ccc(OC)cc12	%	22
CCc1cc2c(N)nc(N)nc2nc1-c1ccccc1	%	18
Cc1ccc(NC(=O)NCCCCCN2CCC(c3c[nH]c4ccccc34)CC2)cc1I	%	96
O=C(Nc1cccc(C(F)(F)F)c1)N1CCOC(CCN2CCC3(CCc4ccccc43)CC2)(c2ccc(Cl)c(Cl)c2)C1 (stereo not given)	%	31

* * *

ASSAYED TARGET: 6-phosphogluconate dehydrogenase, decarboxylating (Homo sapiens)
METHOD: 6PGD enzyme inhibitors, primary screen, biochemical, human, recombinant enzyme, NADPH absorbance (AID 1159550)
PARTICULARS: recombinant 6PGD, NADPH absorbance 341 nm; at 10 µM; stronger effect = higher value

COMPOUND	inhibition (%)
Nc1ccc(S(=O)(=O)Nc2ncccn2)cc1	5.23
COc1ccc2c(=O)c(OC)c(-c3ccccc3)oc2c1	5.12
CC(C)CCC[C@@H](C)[C@H]1CC[C@H]2C3=CC[C@H]4C[C@@H](O)CC[C@]4(C)[C@H]3CC[C@]12C	4.86
CC1(C)C=Cc2cc3ccc(=O)oc3cc2O1	5.11
COc1cc(C2c3cc4c(cc3C(OC3OC5COC(C)OC5C(O)C3O)C3COC(=O)C23)OCO4)cc(OC)c1O (stereo not drawn)	-3.12
CC(C)=CCc1c2c(c(O)c3c(=O)c(O)c(-c4ccccc4)oc13)C=CC(C)(C)O2	-4.34
O=C(O)C1(O)C[C@@H](O)C(O)[C@H](O)C1 (stereo partly drawn)	5.01
O=C1c2c(O)cccc2[C@H]([C@@H]2O[C@H](CO)[C@@H](O)[C@H](O)[C@H]2O)c2cc(CO)cc(O)c21	-1.53
CO[C@@H]1[C@@H](OC2OC(C)C(OC3CC(C)(O)C(O)C(C)O3)C(N(C)C)C2O)[C@@H](CC=O)C[C@@H](C)[C@@H](OC2CCC(N(C)C)C(C)O2)/C=C/C=C/C[C@@H](C)OC(=O)C[C@H]1O (stereo partly drawn)	5.19
O=C(CCc1ccc(O)cc1)c1c(O)cc(O)cc1O	4.36
C[C@@H]1CC[C@H]2[C@](C)(CO)[C@@H](O)CC[C@]2(C)[C@@]12CC[C@@](CO)(CCO)O2	-5.82
COc1c(O)cc(O)cc1O	8.04
C=C(C)[C@H]1COc2cc3oc(=O)ccc3cc2O1	5.71
NC1=NCCN1CC(=O)O	-2.27
C=CC1=C(C(=O)O)N2C(=O)[C@@H](NC(=O)/C(=N\O)c3csc(N)n3)[C@H]2SC1 (stereo in doubt)	-2.05
CC(C)c1c(O)ccc2c1CC[C@H]1C(C)(C)CCC[C@]21C	-7.32
CN(C)CCOC(c1ccccc1)c1ccccc1 (tested in a mixture with another compound)	11
CC(C(=O)O)c1cccc(C(=O)c2ccccc2)c1 (stereo not drawn)	-9.9

* * *

METHOD: viability rescue of complex I mutant cybrids, primary screen, cell-based, galactose medium, ATP luminescence (AID 1645843);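 note: positive z means more ATP and so rescue of galactose-driven cybrid death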
PARTICULARS: complex I mutant cybrid cells, 72 h, stronger effect = higher value
RECORDED ENDPOINT: z-score

COMPOUND	QUANTITATIVE RESULT
Nc1ncn([C@H]2C[C@H](O)[C@@H](CO)O2)c(=O)n1	0.69
O=C(Nc1cccc2c(=O)cc(-c3nn[nH]n3)oc12)c1ccc(OCCCCc2ccccc2)cc1	1.36
COc1ccc(C=CC(=O)Nc2ccccc2C(=O)O)cc1OC	0.955
CN[C@H](CC(C)C)C(=O)N[C@H]1C(=O)N[C@@H](CC(N)=O)C(=O)N[C@H]2C(=O)N[C@H]3C(=O)N[C@H](C(=O)N[C@H](C(=O)O)c4cc(O)cc(O)c4-c4cc3ccc4O)[C@H](O)c3ccc(c(Cl)c3)Oc3cc2cc(c3O[C@@H]2O[C@H](CO)[C@@H](O)[C@H](O)[C@H]2O[C@H]2C[C@](C)(N)[C@H](O)[C@H](C)O2)Oc2ccc(cc2Cl)[C@H]1O	0.26
CC1=C(CC(=O)O)c2cc(F)ccc2/C1=C\c1ccc(S(C)(=O)=O)cc1	0.795
OC(CCN1CCCCC1)(c1ccccc1)C1CC2C=CC1C2 (stereo not given)	-0.86
C[C@H]1O[C@H](O[C@H]2[C@H](O)[C@@H](O)[C@@H](O[C@H]3[C@H](O)[C@@H](O)[C@H](O)O[C@@H]3CO)O[C@@H]2CO)[C@H](O)[C@@H](O)[C@@H]1N[C@H]1C=C(CO)[C@@H](O)[C@H](O)[C@H]1O	0.18
C=C[C@H]1CN2CCC1C[C@@H]2[C@@H](O)c1ccnc2ccc(OC)cc12 (stereo not given in full)	-1.04
CC(=O)O[C@@]12CO[C@@H]1C[C@H](O)[C@@]1(C)C(=O)[C@H](O)C3=C(C)[C@@H](OC(=O)[C@H](O)[C@@H](NC(=O)OC(C)(C)C)c4ccccc4)C[C@@](O)([C@@H](OC(=O)c4ccccc4)[C@H]21)C3(C)C	-0.435
CSc1ccc(C(=O)c2[nH]c(=O)[nH]c2C)cc1	0.31

* * *

METHOD: sensitizers of A549 cells to miR-34 induction, primary screen, imaging, A549 dox-inducible miR-34, nuclei and caspase counts (AID 1347080)
PARTICULARS: A549 miR-34 inducible, Hoechst nuclei count, 48 h; measured here: relative caspase fold change +Dox/-Dox

STRUCTURE	fold change
NC(CO)(CO)CO	0.61
C[C@@H](NCCCc1cccc(C(F)(F)F)c1)c1cccc2ccccc12	0.761
O=C(O)Cc1nn(Cc2ccc(Br)cc2F)c(=O)c2ccccc12	0.601
O=C(N[C@@H](Cc1ccccc1)C(=O)CCl)OCc1ccccc1	1.36

* * *

ASSAYED TARGET: 6-phosphogluconate dehydrogenase, decarboxylating (Homo sapiens) (UniProt P52209)
Sequence (P52209 whole entry, looked up): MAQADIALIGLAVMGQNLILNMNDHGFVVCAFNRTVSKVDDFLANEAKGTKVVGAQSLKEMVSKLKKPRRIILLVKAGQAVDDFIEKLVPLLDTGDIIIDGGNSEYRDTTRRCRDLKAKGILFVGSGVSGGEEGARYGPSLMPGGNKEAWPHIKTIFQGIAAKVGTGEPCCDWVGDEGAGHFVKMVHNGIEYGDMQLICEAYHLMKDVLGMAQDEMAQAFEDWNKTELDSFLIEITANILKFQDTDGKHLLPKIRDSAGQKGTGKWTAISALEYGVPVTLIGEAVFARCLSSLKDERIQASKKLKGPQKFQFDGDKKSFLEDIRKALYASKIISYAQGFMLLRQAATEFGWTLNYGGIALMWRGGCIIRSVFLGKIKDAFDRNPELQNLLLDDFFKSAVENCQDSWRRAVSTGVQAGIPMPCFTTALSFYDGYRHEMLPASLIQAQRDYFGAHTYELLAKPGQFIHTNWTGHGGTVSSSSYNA
METHOD: 6PGD enzyme inhibitors, primary screen, biochemical, human, recombinant enzyme, NADPH absorbance (AID 1159550)
PARTICULARS: recombinant 6PGD, NADPH absorbance 341 nm; at 10 µM; stronger effect = higher value

MOLECULE	inhibition (%)
CC(=O)[C@H]1CC[C@H]2[C@@H]3CC(=O)C4=CC(=O)CC[C@]4(C)[C@H]3CC[C@]12C	-2.73
O=c1ccc2cc(O)c(O)cc2o1	2.61
COc1ccc2cc1Oc1ccc(cc1)C[C@H]1c3cc(c(OC)cc3CCN1C)Oc1c(OC)c(OC)cc3c1[C@H](C2)N(C)CC3	19.5
CCC[C@@H]1C[C@@H](C(=O)N[C@@H]([C@H]2O[C@H](SC)[C@H](O)[C@@H](O)[C@H]2O)[C@H](C)Cl)N(C)C1	8.56
COc1ccc(C(=O)c2ccc(O)cc2)c(O)c1O	-5.23
CCC(C)C(NC)C(=O)O (stereo unspecified)	-6.91
CC12CCC3C(CC3(C)C)C(C)(CCC1=O)O2 (stereo unspecified)	11.8
O=C(NCO)c1cccnc1	-8.21
COc1cc2c(cc1O)[C@@H](Cc1ccc(O)cc1)[N+](C)(C)CC2	16.9
COC(=O)C1=C(C)NC(C)=C(C(=O)OCCN(C)Cc2ccccc2)C1c1cccc([N+](=O)[O-])c1 (stereo unspecified)	-13.8
C=C(C)C1CC=C(C(=O)O)CC1 (stereo unspecified)	7.19

* * *

METHOD: growth inhibition of CRL1545 osteosarcoma cells, cell-based, cisplatin and BGB IC20 combos (AID 1671464);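 note: cells exposed to compound for 96 hours before readout; 0% = vehicle DMSO and 100% = high DMSO killing control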
PARTICULARS: measured here: with BGB IC20 combination, at 0.5 µM, stronger effect = higher value

MOLECULE	inhibition [%]
CC1(C(=O)O)CCC2(C)CCC3(C)C(=CC(=O)C4C5(C)CCC(OC(=O)CCC(=O)O)C(C)(C)C5CCC43C)C2C1 (stereo unspecified)	-46.3
CCn1nc(C(=O)O)c(=O)c2cc3c(cc21)OCO3	-23
O=c1cc[nH]c(=O)[nH]1	-50.2
O=c1[nH]c(=O)n([C@H]2C[C@H](O)[C@@H](CO)O2)cc1C(F)(F)F	-61.7
O=c1c(O)c(-c2ccc(O)c(O)c2)oc2cc(O)ccc12	-7.45
Cc1ccc2nc(N)[nH]c(=O)c2c1Sc1ccncc1	-34.6

* * *

METHOD: stimulators of nuclear beta-catenin in C2C12, primary screen, imaging, WNT3A-conditioned medium, mouse C2C12, NPC library (AID 1117326)
PARTICULARS: at 10 µM, stronger effect = higher value

COMPOUND	nuclear beta-catenin stimulation (%)
CC(C(=O)O)c1ccc2c(c1)Cc1cccnc1O2 (stereo unspecified)	0.4
NC(=O)Cc1cccc(C(=O)c2ccccc2)c1N	3
O=C(O)Cc1sc(-c2ccccc2)nc1-c1ccc(Cl)cc1	-0.8
Cc1ccc2c(c1)c1c3n2CCNC3CCC1 (stereo unspecified)	3
O=C(CS(=O)Cc1ccco1)NC/C=C\COc1cc(CN2CCCCC2)ccn1 (stereo unspecified)	-0.3
CC(=O)N[C@H]1[C@H]([C@H](O)[C@H](O)CO)OC(C(=O)O)=C[C@@H]1N=C(N)N	0.9
O=C(O)Cc1ccc(-c2ccccc2)cc1	-0.4
Cc1[nH]c(=O)c(C#N)cc1-c1ccc2nccn2c1	-1.8
NC(=O)NS(=O)(=O)c1ccc(N)cc1	-1.6
N#Cc1cc(NC(=O)C(=O)O)c(Cl)c(NC(=O)C(=O)O)c1	3.5
CCCCNc1ccc(C(=O)OCCOCCOCCOCCOCCOCCOCCOCCOCCOC)cc1	-0.8
O=c1cc(O)c(Cl)c[nH]1	-0.6
NCCNC(=O)c1ccc(Cl)cn1	1.5
CC1(c2ccccc2)OC(C(=O)O)=CC1=O (stereo unspecified)	0.9
CC(=O)NC(Cc1ccccc1)C(=O)O (stereo unspecified)	1
CN=C(NC#N)Nc1ccc(C2=NNC(=O)CC2C)cc1 (stereo unspecified)	-0.7
CC(=O)N[C@@H](CC(C)C)C(=O)O	0
N[C@H]1C(O)O[C@H](CO)[C@@H](O)[C@@H]1O (stereo partly specified)	-1
O=C(Nc1ccccc1)OCC(CN1CCCCC1)OC(=O)Nc1ccccc1 (stereo unspecified)	-0.9
CCn1c(=O)c2c(nc(C=Cc3ccc(OC)c(OC)c3)n2C)n(CC)c1=O	-0.2
CC(COc1ccccc1)NN (stereo unspecified)	1.8
COC(=O)C1=C(C)NC(C)=C(C(=O)OCCN2CCN(C(c3ccccc3)c3ccccc3)CC2)C1c1cccc([N+](=O)[O-])c1 (stereo unspecified)	7.1
CC(O)Cn1cnc2c1c(=O)n(C)c(=O)n2C (stereo unspecified)	3.9
CCCCOC(=O)c1ccc(O)cc1	1.7
CN1CCN(C2=Nc3ccccc3Sc3ccc(Cl)cc32)CC1	-0.4
O=C(O)CP(=O)(O)O	4.8
NC(=O)C1(N2CCCCC2)CCN(CCCC(=O)c2ccc(F)cc2)CC1	-0.9
CCCN(CCC)CCc1cccc2c1CC(=O)N2	2.8
O=C(OOC(=O)c1ccccc1)c1ccccc1	2.3
O=C(O)CN(CCN(CC(=O)O)CC(=O)O)CCN(CC(=O)O)CC(=O)O	-0.8
Cc1ccc(Nc2c(F)cccc2Cl)c(CC(=O)O)c1	1
